target: Brd4 bromodomain 1 (Homo sapiens, UniProt O60885); construct: made in house; host or cells: E. coli BL21(DE3); test: Inhibition of binding of tetra-acetylated histone H4 and Brd4 bromodomain 1 by TR-FRET; conditions: His-tagged bromodomain 200 nM, biotinylated tetra-acetylated histone H4 peptide 25-50 nM, 2 hours at room temperature
QUANTITY MEASURED: FRET activity (<50 uM)

MOLECULE	FRET activity (<50 uM)
COc1cc(OC)c2c(=O)[nH]c(-c3cccc(-c4ccc(S(C)(=O)=O)cc4)n3)nc2c1 [Example 80]	Active
COc1cc2nc(-c3cc(C)c(O)c(C)c3)[nH]c(=O)c2c(OC)c1CN1CCOCC1 [Example 75]	Active
COc1cc(OC)c2c(=O)[nH]c(-c3ccc(OCCO)c(C)c3)nc2c1 [Example 91]	Active
COc1cc(OC)c2c(=O)[nH]c(-c3cc(C)c(OCCN(C)C)c(C)c3)cc2c1 [Example 7]	Active
COc1cc(OC)c2c(=O)[nH]c(-c3ccc(O)cc3)cc2c1 [Example 3]	Active
COc1cc(OC)c2c(=O)[nH]c(-c3ccc(N(CCO)CCO)cc3)nc2n1 [Example 72]	Active

[Q] Please tell me the measured FRET activity (<50 uM) for COc1cc(OC)c2c(=O)[nH]c(-c3cc(C)c(OCCO)c(C)c3)nc2n1 [Example 65] ; system: Brd4 bromodomain 1 (Homo sapiens, UniProt O60885).
[A] Active

[Q] Please tell me the measured FRET activity (<50 uM) for COc1cc(OC)c2c(=O)[nH]c(-c3ccc(O)c(Cl)c3)nc2c1 [Example 27] ; system: Brd4 bromodomain 1 (Homo sapiens, UniProt O60885).
[A] Active

[Q] Please tell me the measured FRET activity (<50 uM) for COc1cc(OC)c2c(=O)[nH]c(-c3cc(C)c(O)c(C)c3)nc2n1 [Example 63] ; system: Brd4 bromodomain 1 (Homo sapiens, UniProt O60885).
[A] Active

[Q] Please tell me the measured FRET activity (<50 uM) for Cc1cc(-c2cc3ncccc3c(=O)[nH]2)cc(C)c1O [Example 5] ; system: Brd4 bromodomain 1 (Homo sapiens, UniProt O60885).
[A] Inactive

[Q] Please tell me the measured FRET activity (<50 uM) for COc1cc2nc(-c3ccc4c(c3)OCCO4)[nH]c(=O)c2cc1OC [Example 43] ; system: Brd4 bromodomain 1 (Homo sapiens, UniProt O60885).
[A] Inactive

[Q] Please tell me the measured FRET activity (<50 uM) for COc1cc(OC)c2c(=O)[nH]c(-c3cccc(C)n3)nc2c1 [Example 81] ; system: Brd4 bromodomain 1 (Homo sapiens, UniProt O60885).
[A] Active

[Q] Please tell me the measured FRET activity (<50 uM) for Cc1cc(-c2nc3ccc(CN4CCOCC4)cc3c(=O)[nH]2)cc(C)c1O [Example 57] ; system: Brd4 bromodomain 1 (Homo sapiens, UniProt O60885).
[A] Active

[Q] Please tell me the measured FRET activity (<50 uM) for COc1cc2cc(-c3cc(C)c(O)c(C)c3)n(C)c(=O)c2c(OC)c1CN1CCOCC1 [Example 14] ; system: Brd4 bromodomain 1 (Homo sapiens, UniProt O60885).
[A] Inactive
